Biological target: AFL lectin (Aspergillus fumigatus, UniProt Q4WW81)
Sequence (Q4WW81 whole entry): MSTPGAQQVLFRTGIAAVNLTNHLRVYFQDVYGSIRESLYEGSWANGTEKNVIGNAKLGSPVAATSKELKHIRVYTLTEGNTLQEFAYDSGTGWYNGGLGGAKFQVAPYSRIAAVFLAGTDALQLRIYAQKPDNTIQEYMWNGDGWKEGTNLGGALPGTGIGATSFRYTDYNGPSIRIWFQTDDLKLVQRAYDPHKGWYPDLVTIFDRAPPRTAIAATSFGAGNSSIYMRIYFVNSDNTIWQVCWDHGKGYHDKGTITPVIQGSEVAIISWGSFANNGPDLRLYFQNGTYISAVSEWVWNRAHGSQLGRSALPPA
Experiment: biochemical
Type: binding
Conditions: Table 1, first AFL batch; read-out: Kd
Experimental readout: Kd
// unit must come after the numeric part

[in] Supply Kd value. Item: CO[C@@H]1O[C@@H](C)[C@@H](O)[C@@H](O)[C@@H]1O [αMeFuc, methylfucoside, reference compound]
[out] 517 µM

###

Target: AFL lectin (Aspergillus fumigatus, UniProt Q4WW81)
Assay: biochemical
Format: binding
Settings: Table 2, second batch of purified AFL protein
Experimental readout: −ΔG (kcal/mol)
Report as a plain number; the unit kcal/mol is understood.

[in] Supply −ΔG value. Item: CC1OC(OCCOCCOCc2cn(CC3OC4OC5C(Cn6cc(COCCOCCOC7OC(C)C(O)C(O)C7O)nn6)OC(OC6C(Cn7cc(COCCOCCOC8OC(C)C(O)C(O)C8O)nn7)OC(OC7C(Cn8cc(COCCOCCOC9OC(C)C(O)C(O)C9O)nn8)OC(OC8C(Cn9cc(COCCOCCOC%10OC(C)C(O)C(O)C%10O)nn9)OC(OC9C(Cn%10cc(COCCOCCOC%11OC(C)C(O)C(O)C%11O)nn%10)OC(OC3C(O)C4O)C(O)C9O)C(O)C8O)C(O)C7O)C(O)C6O)C(O)C5O)nn2)C(O)C(O)C1O (stereo not shown)
[out] 8.58

###

Target: AFL lectin (Aspergillus fumigatus)
Test: biochemical
Format: binding
Settings: Table 2, second batch of purified AFL protein
Experimental readout: −TΔS
// unit must come after the numeric part

CO[C@@H]1O[C@@H](C)[C@@H](O)[C@@H](O)[C@@H]1O [αMeFuc, methylfucoside, reference compound] | 9.97 ± 1.48 kcal/mol

[in] State measured −TΔS of the molecule CC1OC(OCc2cn(CC3OC4OC5C(Cn6cc(COC7OC(C)C(O)C(O)C7O)nn6)OC(OC6C(Cn7cc(COC8OC(C)C(O)C(O)C8O)nn7)OC(OC7C(Cn8cc(COC9OC(C)C(O)C(O)C9O)nn8)OC(OC8C(Cn9cc(COC%10OC(C)C(O)C(O)C%10O)nn9)OC(OC9C(Cn%10cc(COC%11OC(C)C(O)C(O)C%11O)nn%10)OC(OC3C(O)C4O)C(O)C9O)C(O)C8O)C(O)C7O)C(O)C6O)C(O)C5O)nn2)C(O)C(O)C1O (stereo not shown) with AFL lectin (Aspergillus fumigatus).
[out] 21.6 ± 0.621 kcal/mol

[in] State measured −TΔS of the molecule CC1OC(OCCOCCOCCOCCOCc2cn(CC3OC4OC5C(Cn6cc(COCCOCCOCCOCCOC7OC(C)C(O)C(O)C7O)nn6)OC(OC6C(Cn7cc(COCCOCCOCCOCCOC8OC(C)C(O)C(O)C8O)nn7)OC(OC7C(Cn8cc(COCCOCCOCCOCCOC9OC(C)C(O)C(O)C9O)nn8)OC(OC8C(Cn9cc(COCCOCCOCCOCCOC%10OC(C)C(O)C(O)C%10O)nn9)OC(OC9C(Cn%10cc(COCCOCCOCCOCCOC%11OC(C)C(O)C(O)C%11O)nn%10)OC(OC3C(O)C4O)C(O)C9O)C(O)C8O)C(O)C7O)C(O)C6O)C(O)C5O)nn2)C(O)C(O)C1O (stereo not shown) with AFL lectin (Aspergillus fumigatus).
[out] 40.49 ± 0.14 kcal/mol

[in] State measured −TΔS of the molecule CC1OC(OCCOCCOCc2cn(CC3OC4OC5C(Cn6cc(COCCOCCOC7OC(C)C(O)C(O)C7O)nn6)OC(OC6C(Cn7cc(COCCOCCOC8OC(C)C(O)C(O)C8O)nn7)OC(OC7C(Cn8cc(COCCOCCOC9OC(C)C(O)C(O)C9O)nn8)OC(OC8C(Cn9cc(COCCOCCOC%10OC(C)C(O)C(O)C%10O)nn9)OC(OC9C(Cn%10cc(COCCOCCOC%11OC(C)C(O)C(O)C%11O)nn%10)OC(OC3C(O)C4O)C(O)C9O)C(O)C8O)C(O)C7O)C(O)C6O)C(O)C5O)nn2)C(O)C(O)C1O (stereo not shown) with AFL lectin (Aspergillus fumigatus).
[out] 32.53 ± 3.61 kcal/mol

###

Target: AFL lectin (Aspergillus fumigatus, UniProt Q4WW81)
Assay: biochemical
Assay type: binding
Details: Table 2, second batch of purified AFL protein; read-out: Kd
Experimental readout: pKd
The read-out pKd is expressed as -log10 of concentration in moles per litre.

[in] Supply pKd value. Item: CO[C@@H]1O[C@@H](C)[C@@H](O)[C@@H](O)[C@@H]1O [αMeFuc, methylfucoside, reference compound]
[out] 3.96

###

Overview of recorded −ΔG for various compounds
Target: AFL lectin (Aspergillus fumigatus, UniProt Q4WW81)
Experiment: biochemical
Assay type: binding
Settings: Table 1, first AFL batch
Report as a plain number; the unit kcal/mol is understood.

Examples with their reported −ΔG follow.
C[C@@H]1O[C@@H](OCc2cn(CCOCCOCCOCCOCCOCCOCCOCCOCCOCCOCCOCCn3cc(CO[C@@H]4O[C@@H](C)[C@@H](O)[C@@H](O)[C@@H]4O)nn3)nn2)[C@@H](O)[C@H](O)[C@@H]1O | 8.58
C[C@@H]1O[C@@H](OCc2cn(CCOCCOCCOCCn3cc(CO[C@@H]4O[C@@H](C)[C@@H](O)[C@@H](O)[C@@H]4O)nn3)nn2)[C@@H](O)[C@H](O)[C@@H]1O | 7.41
CO[C@@H]1O[C@@H](C)[C@@H](O)[C@@H](O)[C@@H]1O [αMeFuc, methylfucoside, reference compound] | 4.04

[in] State measured −ΔG of the compound CC1OC(OCCOCCOCc2cn(CC3OC4OC5C(Cn6cc(COCCOCCOC7OC(C)C(O)C(O)C7O)nn6)OC(OC6C(Cn7cc(COCCOCCOC8OC(C)C(O)C(O)C8O)nn7)OC(OC7C(Cn8cc(COCCOCCOC9OC(C)C(O)C(O)C9O)nn8)OC(OC8C(Cn9cc(COCCOCCOC%10OC(C)C(O)C(O)C%10O)nn9)OC(OC9C(Cn%10cc(COCCOCCOC%11OC(C)C(O)C(O)C%11O)nn%10)OC(OC3C(O)C4O)C(O)C9O)C(O)C8O)C(O)C7O)C(O)C6O)C(O)C5O)nn2)C(O)C(O)C1O (stereo not shown) with AFL lectin (Aspergillus fumigatus, UniProt Q4WW81).
[out] 8.48

###

Overview of recorded −ΔG for various compounds
Target: AFL lectin (Aspergillus fumigatus)
Test: biochemical
Format: binding
Settings: Table 1, first AFL batch
// unit must come after the numeric part

CC1OC(OCCOCCOCCOCCOCc2cn(CC3OC4OC5C(Cn6cc(COCCOCCOCCOCCOC7OC(C)C(O)C(O)C7O)nn6)OC(OC6C(Cn7cc(COCCOCCOCCOCCOC8OC(C)C(O)C(O)C8O)nn7)OC(OC7C(Cn8cc(COCCOCCOCCOCCOC9OC(C)C(O)C(O)C9O)nn8)OC(OC8C(Cn9cc(COCCOCCOCCOCCOC%10OC(C)C(O)C(O)C%10O)nn9)OC(OC9C(Cn%10cc(COCCOCCOCCOCCOC%11OC(C)C(O)C(O)C%11O)nn%10)OC(OC3C(O)C4O)C(O)C9O)C(O)C8O)C(O)C7O)C(O)C6O)C(O)C5O)nn2)C(O)C(O)C1O (centres unmarked) [Compound 30] | 9.18 ± 0.048 kcal/mol

Please find the next compound below.
[in] Supply −ΔG value. Item: C[C@@H]1O[C@@H](OCc2cn(CCOCCOCCOCCO)nn2)[C@@H](O)[C@H](O)[C@@H]1O [Compound 33, reference compound]
[out] 5.26 ± 0.24 kcal/mol

###

Target: UniProtKB Q4WW81
Assay: biochemical
Format: binding
Conditions: Table 2, second batch of purified AFL protein
Overview of recorded N (stoichiometry) for various compounds
Quick one: just the number, no unit, thanks!

Examples with their reported N (stoichiometry) follow.
CC1OC(OCc2cn(CC3OC4OC5C(Cn6cc(COC7OC(C)C(O)C(O)C7O)nn6)OC(OC6C(Cn7cc(COC8OC(C)C(O)C(O)C8O)nn7)OC(OC7C(Cn8cc(COC9OC(C)C(O)C(O)C9O)nn8)OC(OC8C(Cn9cc(COC%10OC(C)C(O)C(O)C%10O)nn9)OC(OC9C(Cn%10cc(COC%11OC(C)C(O)C(O)C%11O)nn%10)OC(OC3C(O)C4O)C(O)C9O)C(O)C8O)C(O)C7O)C(O)C6O)C(O)C5O)nn2)C(O)C(O)C1O (stereo not drawn) | 1.36
CC1OC(OCCOCCOCc2cn(CC3OC4OC5C(Cn6cc(COCCOCCOC7OC(C)C(O)C(O)C7O)nn6)OC(OC6C(Cn7cc(COCCOCCOC8OC(C)C(O)C(O)C8O)nn7)OC(OC7C(Cn8cc(COCCOCCOC9OC(C)C(O)C(O)C9O)nn8)OC(OC8C(Cn9cc(COCCOCCOC%10OC(C)C(O)C(O)C%10O)nn9)OC(OC9C(Cn%10cc(COCCOCCOC%11OC(C)C(O)C(O)C%11O)nn%10)OC(OC3C(O)C4O)C(O)C9O)C(O)C8O)C(O)C7O)C(O)C6O)C(O)C5O)nn2)C(O)C(O)C1O (stereo not drawn) | 1.20

Please find the next compound below.
[in] State measured N (stoichiometry) of the compound CO[C@@H]1O[C@@H](C)[C@@H](O)[C@@H](O)[C@@H]1O [αMeFuc, methylfucoside, reference compound] with UniProtKB Q4WW81.
[out] 3.3
